The next entries give measured IC50 for MAPK14 (human) (UniProt Q16539).

CNC(=O)c1csc(-c2sc(C)nc2-c2ccc(F)cc2)n1 | ≤ 1000 nM
COc1ccc(NC(=O)c2csc(-c3sc(C)nc3-c3ccc(F)cc3)n2)cc1OC | ≤ 1000 nM
C#CCNC(=O)c1csc(-c2c(-c3ccc(F)cc3)n[nH]c2C2CCNCC2)n1 | ≤ 1000 nM
Cc1nc(-c2ccc(F)cc2)c(-c2nc(C(=O)NCCO)cs2)s1 | ≤ 1000 nM

Ask: Determine reported IC50 for Cc1nc(-c2ccc(F)cc2)c(-c2nc(C(=O)Nc3cnc4ccccc4c3)cs2)s1 ; test system: MAPK14 (human) (UniProt Q16539).
Sequence (Q16539 whole entry, looked up): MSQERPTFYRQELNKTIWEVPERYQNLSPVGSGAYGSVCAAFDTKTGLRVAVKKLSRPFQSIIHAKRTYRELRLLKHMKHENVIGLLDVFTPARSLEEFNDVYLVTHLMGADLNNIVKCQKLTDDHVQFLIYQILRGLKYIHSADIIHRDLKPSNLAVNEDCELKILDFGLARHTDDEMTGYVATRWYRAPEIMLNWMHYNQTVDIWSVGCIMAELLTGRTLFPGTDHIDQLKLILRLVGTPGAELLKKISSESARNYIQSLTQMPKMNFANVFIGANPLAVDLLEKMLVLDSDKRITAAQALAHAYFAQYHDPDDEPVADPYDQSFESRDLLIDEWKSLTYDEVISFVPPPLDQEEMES
Result: ≤ 1000 nM

Ask: Consider the molecule CC(C)NC(=O)c1csc(-c2oc(CNC(=O)c3ccccc3[N+](=O)[O-])nc2-c2ccc(F)cc2)n1 tested on MAPK14 (human) (UniProt Q16539); state its IC50.
Result: ≤ 1000 nM

Ask: Look up and report measured IC50 (MAPK14 (human) (UniProt Q16539)) for the following molecule: Cc1nc(-c2ccc(F)cc2)c(-c2nc(C(=O)NCc3ccncc3)cs2)s1
Result: ≤ 1000 nM

Ask: System MAPK14 (human) (UniProt Q16539). Read-out IC50. Item COc1ccccc1C=CC(=O)N1CCN(Cc2nc(-c3ccc(F)cc3)c(-c3nc(C(=O)NC(C)C)cs3)o2)CC1 . Report value.
Result: ≤ 1000 nM

Ask: Please indicate recorded IC50 of CCN(CC)c1ccc(C(=O)N2CCN(Cc3nc(-c4ccc(F)cc4)c(-c4nc(C(=O)NC(C)C)cs4)o3)CC2)cc1 measured with MAPK14 (human) (UniProt Q16539).
Result: ≤ 1000 nM

====

IC50 data for MAPK14 (human) (UniProt Q16539) follow.

These solved cases illustrate the format of a correct answer.
O=C(NCC(F)(F)F)c1csc(-c2c(-c3ccc(F)cc3)ncn2C2CCNCC2)n1 | ≤ 1 µM
Cc1nc(-c2ccc(F)cc2)c(-c2nc(C(=O)NCCN3CCCC3)cs2)s1 | ≤ 1 µM

Ask: With MAPK14 (human) (UniProt Q16539) as the test system, provide measured IC50 for this compound: CC(C)NC(=O)c1csc(-c2oc(CNC(=O)c3cccc(F)c3F)nc2-c2ccc(F)cc2)n1
Result: ≤ 1 µM

Ask: Fetch value of IC50 on MAPK14 (human) (UniProt Q16539) for CC(C)NC(=O)c1csc(-c2c(-c3ccc(F)cc3)n[nH]c2C2CCN(C(=O)c3cc(Cl)ccn3)CC2)n1 .
Result: ≤ 1 µM

Ask: Would you please give the reported IC50 of CC(C)NC(=O)c1csc(-c2oc(CNC(=O)c3c(F)cccc3Cl)nc2-c2ccc(F)cc2)n1 with MAPK14 (human) (UniProt Q16539)?
Result: ≤ 1 µM

Ask: Consider the compound Cc1onc(-c2ccc(F)cc2)c1-c1ccn(C(=O)NC(C)C)n1 tested on MAPK14 (human) (UniProt Q16539); state its IC50.
Result: ≤ 1 µM

Ask: Please report IC50 with MAPK14 (human) (UniProt Q16539) for item CC(C)NC(=O)c1csc(-c2oc(CNC(=O)c3cc(O)ccc3[N+](=O)[O-])nc2-c2ccc(F)cc2)n1 .
Result: ≤ 1 µM

Ask: Write IC50 of CC(C)NC(=O)c1csc(-c2oc(CNC(=O)c3cccc(Cl)c3[N+](=O)[O-])nc2-c2ccc(F)cc2)n1 ; system used: MAPK14 (human) (UniProt Q16539)
Result: ≤ 1 µM

Ask: Report IC50 under test system MAPK14 (human) (UniProt Q16539) for CCCCOc1ccc(C(=O)N2CCC(c3[nH]nc(-c4ccc(F)cc4)c3-c3nc(C(=O)NC(C)C)cs3)CC2)cc1 .
Result: ≤ 1 µM
